Data origin, for the record: ChEMBL document CHEMBL1817648

Test Details: Cytotoxicity against african green monkey Vero cells after 72 hrs by MTT assay
Assay type: cell-based
Test Conditions: chlorocebus sabaeus
In this section, each of the molecules is paired with its reported CC50 at 72 h.
Please give a number only; it is taken to be in µg/mL.

>  <Molecule>
COc1c(N2CCN(C/C(C)=N/NC(N)=O)C(C)C2)c(F)cc2c(=O)c(C(=O)O)cn(C3CC3)c12 (stereo not drawn)

>  <Measured Number>
500

$$$$

// CC50 at 72 h value for CCOC(=O)CN1CCN(c2c(F)cc3c(=O)c(C(=O)O)cn(C4CC4)c3c2OC)CC1C (stereo not drawn) : 1000

// CC50 at 72 h value for COc1c(N2CCN(CC(C)=O)C(C)C2)c(F)cc2c(=O)c(C(=O)O)cn(C3CC3)c12 (stereo not drawn) : 500

====

Test system: Enterococcus faecium
Test Details: Antibacterial activity against Enterococcus faecium 08-2 after 18 to 24 hrs by NCCLS M100-S11 two fold serial dilution method
Format: functional
Measured Quantity: MIC (µg/mL)
Please give a number only; it is taken to be in µg/mL.

# count of solved cases: 3
>  <Compound>
COc1c(N2CCN(CC(C)=O)C(C)C2)c(F)cc2c(=O)c(C(=O)O)cn(C3CC3)c12 (centres undefined)

>  <Output Unit>
µg/mL

>  <MIC>
32

$$$$
>  <Compound>
COc1c(N2CCN(CC/C(C)=N/NC(N)=O)C(C)C2)c(F)cc2c(=O)c(C(=O)O)cn(C3CC3)c12 (centres undefined)

>  <Output Unit>
µg/mL

>  <MIC>
8

$$$$
>  <Compound>
COc1c(N2CCN(CCC#N)C(C)C2)c(F)cc2c(=O)c(C(=O)O)cn(C3CC3)c12 (centres undefined)

>  <Output Unit>
µg/mL

>  <MIC>
32

$$$$

// MIC value for COc1c(N2CCN(C/C(C)=N/NC(C)=O)C(C)C2)c(F)cc2c(=O)c(C(=O)O)cn(C3CC3)c12 (centres undefined) : 16

====

Tested on: Enterococcus faecium
Test Details: Antibacterial activity against Enterococcus faecium 08-2 after 18 to 24 hrs by NCCLS M100-S11 two fold serial dilution method
Assay type: functional
In this section, each of the compounds is paired with its reported MIC.
Please give a number only; it is taken to be in µg/mL.

# count of solved cases: 4
>  <Compound>
COc1c(N2CCNC(C)C2)c(F)cc2c(=O)c(C(=O)O)cn(C3CC3)c12 (stereo not drawn) [GATIFLOXACIN]

>  <Measured Number>
2

$$$$
>  <Compound>
COc1c(N2CCN(C/C(C)=N/NC(=O)c3ccncc3)C(C)C2)c(F)cc2c(=O)c(C(=O)O)cn(C3CC3)c12 (stereo not drawn)

>  <Measured Number>
64

$$$$
>  <Compound>
COc1c(N2CCN(CC/C(C)=N/O)C(C)C2)c(F)cc2c(=O)c(C(=O)O)cn(C3CC3)c12 (stereo not drawn)

>  <Measured Number>
64

$$$$
>  <Compound>
COc1c(N2CCN(C/C(C)=N/Nc3ccccc3)C(C)C2)c(F)cc2c(=O)c(C(=O)O)cn(C3CC3)c12 (stereo not drawn)

>  <Measured Number>
4

$$$$

Next item in the queue.
// MIC value for COc1c(N2CCN(CC/C(C)=N/Nc3ccccc3)C(C)C2)c(F)cc2c(=O)c(C(=O)O)cn(C3CC3)c12 (stereo not drawn) : 0.5

====

Tested on: Pseudomonas aeruginosa
Test Details: Antibacterial activity against Pseudomonas aeruginosa 09-32 after 18 to 24 hrs by NCCLS M100-S11 two fold serial dilution method
Type: functional
Note to self: use yes only for MIC readings below 0.5 µg/mL; a reading exactly at 0.5 µg/mL still gets no.

Before answering, review these 5 worked examples.
>  <Molecule>
COc1c(N2CCN(CC/C(C)=N/O)C(C)C2)c(F)cc2c(=O)c(C(=O)O)cn(C3CC3)c12 (configuration not stated)

>  <Group Label>
no

$$$$
>  <Molecule>
COc1c(N2CCN(C/C(C)=N/NC(C)=O)C(C)C2)c(F)cc2c(=O)c(C(=O)O)cn(C3CC3)c12 (configuration not stated)

>  <Group Label>
yes

$$$$
>  <Molecule>
COc1c(N2CCNC(C)C2)c(F)cc2c(=O)c(C(=O)O)cn(C3CC3)c12 (configuration not stated)

>  <Group Label>
no

$$$$
>  <Molecule>
CO/N=C(\C)CCN1CCN(c2c(F)cc3c(=O)c(C(=O)O)cn(C4CC4)c3c2OC)CC1C (configuration not stated)

>  <Group Label>
no

$$$$
>  <Molecule>
COc1c(N2CCN(CCC(C)=O)C(C)C2)c(F)cc2c(=O)c(C(=O)O)cn(C3CC3)c12 (configuration not stated)

>  <Group Label>
yes

$$$$

With those in mind, consider the next molecule.
Request: Please state whether MIC is below 0.5 µg/mL for CO/N=C(\C)CN1CCN(c2c(F)cc3c(=O)c(C(=O)O)cn(C4CC4)c3c2OC)CC1C (configuration not stated)
Result: no

====

In this section, each of the compounds is paired with its reported MIC.
Tested on: Streptococcus pneumoniae
Test Details: Antibacterial activity against Streptococcus pneumoniae 08-2 after 18 to 24 hrs by NCCLS M100-S11 two fold serial dilution method
Format: functional

# count of solved cases: 3
>  <Compound>
COC(=O)CN1CCN(c2c(F)cc3c(=O)c(C(=O)O)cn(C4CC4)c3c2OC)CC1C (centres undefined)

>  <MIC>
> 128 µg/mL

$$$$
>  <Compound>
CCO/N=C(\C)CN1CCN(c2c(F)cc3c(=O)c(C(=O)O)cn(C4CC4)c3c2OC)CC1C (centres undefined)

>  <MIC>
> 128 µg/mL

$$$$
>  <Compound>
CO/N=C(\C)CCN1CCN(c2c(F)cc3c(=O)c(C(=O)O)cn(C4CC4)c3c2OC)CC1C (centres undefined)

>  <MIC>
> 128 µg/mL

$$$$

// MIC value for CCOC(=O)CCN1CCN(c2c(F)cc3c(=O)c(C(=O)O)cn(C4CC4)c3c2OC)CC1C (centres undefined) : > 128 µg/mL

====

In this section, each of the compounds is paired with its reported MIC.
System: Pseudomonas aeruginosa
Test Details: Antibacterial activity against Pseudomonas aeruginosa ATCC 27853 after 18 to 24 hrs by NCCLS M100-S11 two fold serial dilution method
Format: functional

// MIC value for CCO/N=C(\C)CCN1CCN(c2c(F)cc3c(=O)c(C(=O)O)cn(C4CC4)c3c2OC)CC1C (centres undefined) : > 128 µg/mL

// MIC value for COc1c(N2CCN(O)C(C)C2)c(F)cc2c(=O)c(C(=O)O)cn(C3CC3)c12 (centres undefined) : 4 µg/mL

// MIC value for COc1c(N2CCNC(C)C2)c(F)cc2c(=O)c(C(=O)O)cn(C3CC3)c12 (centres undefined) : 1 µg/mL

// MIC value for COc1c(N2CCN(C/C(C)=N/Nc3ccccc3)C(C)C2)c(F)cc2c(=O)c(C(=O)O)cn(C3CC3)c12 (centres undefined) : 2 µg/mL

// MIC value for COc1c(N2CCN(CC/C(C)=N/NC(N)=O)C(C)C2)c(F)cc2c(=O)c(C(=O)O)cn(C3CC3)c12 (centres undefined) : 4 µg/mL

// MIC value for COc1c(N2CCN(C/C(C)=N/NC(N)=O)C(C)C2)c(F)cc2c(=O)c(C(=O)O)cn(C3CC3)c12 (centres undefined) : > 128 µg/mL

// MIC value for COc1c(N2CCN(CC#N)C(C)C2)c(F)cc2c(=O)c(C(=O)O)cn(C3CC3)c12 (centres undefined) : 2 µg/mL

// MIC value for COC(=O)CCN1CCN(c2c(F)cc3c(=O)c(C(=O)O)cn(C4CC4)c3c2OC)CC1C (centres undefined) : > 128 µg/mL

// MIC value for COc1c(N2CCN(CC(C)=O)C(C)C2)c(F)cc2c(=O)c(C(=O)O)cn(C3CC3)c12 (centres undefined) : 8 µg/mL

====

In this section, each of the molecules is paired with its reported MIC.
Test system: Enterococcus faecium
Test Details: Antibacterial activity against Enterococcus faecium 08-2 after 18 to 24 hrs by NCCLS M100-S11 two fold serial dilution method
Type: functional

# count of solved cases: 2
>  <Molecule>
CCOC(=O)CN1CCN(c2c(F)cc3c(=O)c(C(=O)O)cn(C4CC4)c3c2OC)CC1C (stereo not drawn)

>  <Assayed System>
Enterococcus faecium

>  <MIC>
> 128 µg/mL

$$$$
>  <Molecule>
COc1c(N2CCN(C/C(C)=N/O)C(C)C2)c(F)cc2c(=O)c(C(=O)O)cn(C3CC3)c12 (stereo not drawn)

>  <Assayed System>
Enterococcus faecium

>  <MIC>
> 128 µg/mL

$$$$

// MIC value for COc1c(N2CCN(C/C(C)=N/NC(N)=O)C(C)C2)c(F)cc2c(=O)c(C(=O)O)cn(C3CC3)c12 (stereo not drawn) : > 128 µg/mL
